Tested on: Staphylococcus aureus 446
Test: MIC, standard broth micro-dilution assay, SA 446
Format: cell-based
# minimal inhibitory concentration (MIC), SA 446 values compiled below

Record excerpt, results attached:
>>> value_observed("CC(C)CC(N)C(=O)NC1C(=O)NC(CC(N)=O)C(=O)NC2C(=O)NC3C(=O)NC(C(=O)NC(C(=O)O)c4cc(O)cc(O)c4-c4cc3ccc4O)C(OC3CC(C)(N)C(O)C(C)O3)c3ccc(c(Cl)c3)Oc3cc2cc(c3OC2OC(CO)C(O)C(O)C2OC2CC(C)(NCc3ccc(-c4ccccc4)cc3)C(O)C(C)O2)Oc2ccc(cc2Cl)C1O (stereo not drawn) [Example 27]")
2
>>> value_observed("CC1OC(OC2C(Oc3c4cc5cc3Oc3ccc(cc3Cl)[C@@H](O)[C@@H](NC(=O)[C@H]3CCCN3C(=O)OC(C)(C)C)C(=O)N[C@@H](CC(N)=O)C(=O)N[C@H]5C(=O)N[C@H]3C(=O)NC(C(=O)N[C@H](C(=O)O)c5cc(O)cc(O)c5-c5cc3ccc5O)[C@H](OC3CC(C)(N)C(O)C(C)O3)c3ccc(c(Cl)c3)O4)OC(CO)C(O)C2O)CC(C)(N)C1O (stereo partly drawn)")
4

Lab note: next compound to report on.
[Q] Dear colleague, I am looking for the recorded minimal inhibitory concentration (MIC), SA 446 of the following compound: CC1OC(OC2c3ccc(c(Cl)c3)Oc3cc4cc(c3OC3OC(CO)C(O)C(O)C3OC3CC(C)(NCc5ccc(-c6ccccc6)cc5)C(O)C(C)O3)Oc3ccc(cc3Cl)C(O)C(NC(=O)C(Cc3ccc(Cl)cc3)NC(=O)OC(C)(C)C)C(=O)NC(CC(N)=O)C(=O)NC4C(=O)NC3C(=O)NC2C(=O)NC(C(=O)O)c2cc(O)cc(O)c2-c2cc3ccc2O)CC(C)(N)C1O (stereo not drawn) [Example 28]
[A] 4

Origin of the recorded values: patent US6670446B1
